Molecular target: T1, human GIP receptor (human, UniProt P48546 22-466)
T1 sequence (looked up): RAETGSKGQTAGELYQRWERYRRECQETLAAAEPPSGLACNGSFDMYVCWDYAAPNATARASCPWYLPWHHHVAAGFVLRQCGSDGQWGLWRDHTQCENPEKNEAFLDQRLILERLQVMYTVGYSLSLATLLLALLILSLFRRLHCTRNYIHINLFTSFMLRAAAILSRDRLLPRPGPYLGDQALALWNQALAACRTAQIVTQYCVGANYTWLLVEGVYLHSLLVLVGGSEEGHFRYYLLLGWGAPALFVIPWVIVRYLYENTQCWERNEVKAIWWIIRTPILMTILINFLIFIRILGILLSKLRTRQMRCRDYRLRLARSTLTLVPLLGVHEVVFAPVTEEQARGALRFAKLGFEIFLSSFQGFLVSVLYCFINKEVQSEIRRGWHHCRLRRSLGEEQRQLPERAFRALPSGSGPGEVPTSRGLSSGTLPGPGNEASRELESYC
Assay: cell-based or functional assay
Bridge positions count the residues as written; N and C are the ends. Square brackets hold non-standard residues; d marks the D form. Ends that are not written are not given here. Aib = CC(C)(N)C(=O)O
Measured In vitro activity compared with native peptide (%) vs GIP (cAMP EC50) values are reported for all entries that follow.
Reply with just the number (in %).

Consider the reported In vitro activity compared with native peptide (%) vs GIP (cAMP EC50) for these binders:
| BINDER | ASSAY_RESULT |
| --- | --- |
| H[Aib]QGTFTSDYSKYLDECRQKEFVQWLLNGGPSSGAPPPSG (bridge 16-20) [triple agonist of SEQ ID NO: 37] | 2.2 |
| Y[Aib]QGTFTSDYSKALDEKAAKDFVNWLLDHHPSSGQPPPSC (bridge 16-20) [triple agonist of SEQ ID NO: 99] | 57.7 |

Problem: # In vitro activity compared with native peptide (%) vs GIP (cAMP EC50) lookup, item Y[Aib]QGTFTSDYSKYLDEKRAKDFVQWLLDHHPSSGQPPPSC (bridge 16-20) [triple agonist of SEQ ID NO: 76]
Result: 11.7

Problem: Given the entry H[Aib]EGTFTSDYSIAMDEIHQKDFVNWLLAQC (bridge 16-20) [triple agonist of SEQ ID NO: 53] , report its measured In vitro activity compared with native peptide (%) vs GIP (cAMP EC50).
Result: 1.3

Problem: So what does the record say about In vitro activity compared with native peptide (%) vs GIP (cAMP EC50) for H[Aib]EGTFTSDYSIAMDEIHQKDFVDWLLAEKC (bridge 16-20) [triple agonist of SEQ ID NO: 80] ?
Result: 0.1
